Source of measurements: ChEMBL document CHEMBL1138430

target: UniProt P31645
Entries annotated with measured Ki
Only the number, expressed in nM, is required.

Solved cases below.
> print(dat)
                                   compound  units.label  val
1  CN1Cc2cc(OCCCN3CCC(F)CC3)ccc2C(c2ccc(C(F)(F)F)cc2)C1 (stereo not given)           nM  8.6
2  COc1cccc(C2CN(C)Cc3cc(OCCCN4CCC(F)CC4)ccc32)c1 (stereo not given)           nM  4.3
3  CSc1ccc(C2CN(C)Cc3cc(OCCCN4CCC(F)CC4)ccc32)cc1 (stereo in doubt; (-)/-12p)           nM  4.2
4  CN1Cc2cc(OCCCN3CCC(F)CC3)ccc2C(c2ccc(OC(F)F)cc2)C1 (stereo not given)           nM  4.3

Q: Item CN1Cc2cc(OCCCN3CCC(F)CC3)ccc2C(c2ccc(Cl)c(Cl)c2)C1 (stereo not given) with UniProt P31645 - Ki?
A: 21

---

biological target: UniProtKB Q01959; assay: Inhibition of [3H]WIN-uptake in human DAT expressed in CHO cells
Sequence (Q01959 whole entry): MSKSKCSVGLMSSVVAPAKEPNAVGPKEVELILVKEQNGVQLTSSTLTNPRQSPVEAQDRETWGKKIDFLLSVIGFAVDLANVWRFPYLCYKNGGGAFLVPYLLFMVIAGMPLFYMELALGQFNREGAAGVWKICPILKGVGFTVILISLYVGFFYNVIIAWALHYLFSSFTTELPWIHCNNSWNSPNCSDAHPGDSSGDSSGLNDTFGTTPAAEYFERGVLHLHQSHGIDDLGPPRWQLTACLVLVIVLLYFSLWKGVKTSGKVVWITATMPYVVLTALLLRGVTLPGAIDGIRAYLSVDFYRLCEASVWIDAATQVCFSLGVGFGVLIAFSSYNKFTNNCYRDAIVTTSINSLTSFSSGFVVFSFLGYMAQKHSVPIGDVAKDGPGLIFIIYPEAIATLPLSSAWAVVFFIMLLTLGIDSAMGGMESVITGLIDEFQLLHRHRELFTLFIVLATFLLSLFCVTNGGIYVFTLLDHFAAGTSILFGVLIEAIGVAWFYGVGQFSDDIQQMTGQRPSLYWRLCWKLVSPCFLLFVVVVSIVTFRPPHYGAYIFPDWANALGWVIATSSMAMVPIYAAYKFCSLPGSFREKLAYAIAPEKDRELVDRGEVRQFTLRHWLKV
Quantity: pKi
Scale note: pKi = -log10(concentration in M).

Solved cases below.
> print(dat)
                                   compound  quantity   val
1  CSc1ccc(C2CN(C)Cc3cc(OCCCN4CCOCC4)ccc32)cc1 (racemic)       pKi  7.54
2  COc1ccc([C@@H]2CN(C)Cc3cc(OCCCN4CCOC[C@@H]4C)ccc32)cc1       pKi  6.99

Q: Name the recorded pKi for CSc1ccc(C2CN(C)Cc3cc(OCCCN4CCC(F)CC4)ccc32)cc1 (racemic) .
A: 7.34

---

Each entry below carries its measured log10 of Ki, system: Histamine H3 receptor (Homo sapiens, UniProt Q9Y5N1).
Sequence (Q9Y5N1 whole entry): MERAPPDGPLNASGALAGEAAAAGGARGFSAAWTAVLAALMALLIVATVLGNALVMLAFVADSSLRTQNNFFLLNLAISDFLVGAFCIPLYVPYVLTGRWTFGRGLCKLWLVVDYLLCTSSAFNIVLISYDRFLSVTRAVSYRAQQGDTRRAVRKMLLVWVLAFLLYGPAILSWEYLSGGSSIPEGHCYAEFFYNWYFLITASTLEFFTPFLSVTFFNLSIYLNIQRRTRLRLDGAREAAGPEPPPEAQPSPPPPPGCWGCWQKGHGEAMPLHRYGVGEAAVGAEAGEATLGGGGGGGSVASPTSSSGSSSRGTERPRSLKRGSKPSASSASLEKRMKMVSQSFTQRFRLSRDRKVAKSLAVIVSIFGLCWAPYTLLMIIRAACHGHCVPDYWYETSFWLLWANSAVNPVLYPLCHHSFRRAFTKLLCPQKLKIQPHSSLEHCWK
// stored as log10 of Ki expressed in nM

> print(dat)
                                   compound     quantity   val
1  CN1Cc2cc(OCCCN3CCC(F)CC3)ccc2C(c2ccc(OC(F)F)cc2)C1 (stereo not drawn)  log10 of Ki  1.00
2  CN1Cc2cc(OCCCN3CCC(F)CC3)ccc2C(c2ccc(C(F)(F)F)cc2)C1 (stereo not drawn)  log10 of Ki  1.26
3  CN1Cc2cc(OCCCN3CCC(F)CC3)ccc2C(c2ccccc2)C1 (stereo not drawn)  log10 of Ki  0.52
4  COc1ccc([C@@H]2CN(C)Cc3cc(OCCCN4CCOC[C@@H]4C)ccc32)cc1  log10 of Ki  0.75

Q: Name the recorded log10 of Ki for CN1Cc2cc(OCCCN3CCC(F)CC3)ccc2C(c2ccc(Cl)c(Cl)c2)C1 (stereo not drawn) .
A: 1.49

Q: Name the recorded log10 of Ki for CN1Cc2cc(OCCCN3CCC(F)CC3)ccc2C(c2cc(Cl)ccc2Cl)C1 (stereo not drawn) .
A: 0.97

Q: Name the recorded log10 of Ki for `COc1ccc([C@H]2CN(C)Cc3cc(OCCCN4CCOC[C@@H]4C)ccc32)cc1` .
A: 0.84

Q: Name the recorded log10 of Ki for CN1Cc2cc(OCCCN3CCC(F)CC3)ccc2C(c2ccc(SC(F)(F)F)cc2)C1 (stereo not drawn) .
A: 1.66

---

Each entry below carries its measured Ki, system: Sodium-dependent serotonin transporter (Homo sapiens).
Sequence (P31645 whole entry): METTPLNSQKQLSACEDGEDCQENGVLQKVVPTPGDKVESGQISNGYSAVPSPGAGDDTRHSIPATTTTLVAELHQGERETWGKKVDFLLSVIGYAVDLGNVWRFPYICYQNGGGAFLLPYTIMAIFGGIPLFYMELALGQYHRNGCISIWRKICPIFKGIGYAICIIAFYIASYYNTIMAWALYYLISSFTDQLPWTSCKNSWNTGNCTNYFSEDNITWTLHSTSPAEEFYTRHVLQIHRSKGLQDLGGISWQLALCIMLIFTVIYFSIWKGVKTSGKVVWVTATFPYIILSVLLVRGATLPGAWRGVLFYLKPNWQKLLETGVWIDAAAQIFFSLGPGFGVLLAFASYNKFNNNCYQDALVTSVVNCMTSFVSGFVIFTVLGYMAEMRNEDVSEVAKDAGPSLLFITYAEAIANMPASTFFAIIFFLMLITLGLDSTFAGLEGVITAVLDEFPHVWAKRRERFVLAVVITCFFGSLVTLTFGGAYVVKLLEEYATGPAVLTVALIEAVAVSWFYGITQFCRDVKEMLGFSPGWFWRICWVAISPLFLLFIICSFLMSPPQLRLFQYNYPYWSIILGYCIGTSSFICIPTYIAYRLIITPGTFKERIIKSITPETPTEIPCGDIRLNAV
Only the number, expressed in nM, is required.

Solved cases below.
> print(dat)
                                   molecule  quantity  val
1  CSc1ccc(C2CN(C)Cc3cc(OCCCN4CCC(F)CC4)ccc32)cc1 (stereo in doubt; 12o)        Ki  8.8
2  CN1Cc2cc(OCCCN3CCC(F)CC3)ccc2C(c2cccc(Cl)c2)C1 (stereo not drawn)        Ki   24

Consider the record given below.
Q: Item Cc1ccc(C2CN(C)Cc3cc(OCCCN4CCC(F)CC4)ccc32)cc1 (stereo not drawn) with Sodium-dependent serotonin transporter (Homo sapiens) - Ki?
A: 13
